Sourced from patent US20230167505A1

# test_summary: Pharmacokinetics: onvansertib plasma concentrations by LC/MS-MS
# Assay type: in vivo, human
# condition_label: human, plasma, oral, 18 mg/m^2, Cycle 1 day 5, mean ± SD; 18 mg/m^2 + LDAC; 3 patients
measured_metric: Tmax (h)
Write the number in h without appending the unit.

Can you share its Tmax? I mean this molecule: CN1CCN(c2ccc(OC(F)(F)F)c(Nc3ncc4c(n3)-c3c(c(C(N)=O)nn3CCO)CC4)c2)CC1
3

====

# test_summary: Pharmacokinetics: onvansertib plasma concentrations by LC/MS-MS
# Format: in vivo, human
# condition_label: human, plasma, oral, 12 mg/m^2, Cycle 1 day 5, mean ± SD; 12 mg/m^2 + LDAC; 3 patients; read-out: AUC(0-24)
# Description: Pharmacokinetics: Blood samples were collected from patients for pharmacokinetic analysis on days 1 and 5 at predose; at 0.5, 1, 2, 3, 4, 8, and 24 hours after administration of onvansertib; and once on days 8, 15, and 22. Onvansertib plasma concentrations were determined by LC/MS-MS at PRA Bioanalytical Laboratory. […]
measured_metric: AUC(0-t) (µM·h)
Hi! Could you send only the number? It should be in µM·h, unit omitted.

What does the record list as AUC(0-t) for CN1CCN(c2ccc(OC(F)(F)F)c(Nc3ncc4c(n3)-c3c(c(C(N)=O)nn3CCO)CC4)c2)CC1 ?
2.15

====

# test_summary: Pharmacokinetics: onvansertib plasma concentrations by LC/MS-MS
# Assay type: in vivo, human
# condition_label: human, plasma, oral, 18 mg/m^2, Cycle 1 day 5, mean ± SD; 18 mg/m^2 + Decitabine; 3 patients; read-out: t1/2 (converted)
measured_metric: half-life (h)
Value expressed in h; do not type the unit.

Which half-life value belongs to CN1CCN(c2ccc(OC(F)(F)F)c(Nc3ncc4c(n3)-c3c(c(C(N)=O)nn3CCO)CC4)c2)CC1 ?
21

====

# test_summary: Pharmacokinetics: onvansertib plasma concentrations by LC/MS-MS
# Assay type: in vivo, human
# condition_label: human, plasma, oral, Cycle 1 day 5, mean ± SD; 27 mg/m^2 + Decitabine; 3 patients; read-out: AUC(0-24)
measured_metric: AUC(0-t) (µM·h)
State just the number; it will be interpreted in µM·h.

Can you look up the measured AUC(0-t) of CN1CCN(c2ccc(OC(F)(F)F)c(Nc3ncc4c(n3)-c3c(c(C(N)=O)nn3CCO)CC4)c2)CC1 for me?
5.42

====

# test_summary: Pharmacokinetics: onvansertib plasma concentrations by LC/MS-MS
# Assay type: in vivo, human
# condition_label: human, plasma, oral, day 5 of cycle 1, all patients; read-out: range of half-life (t1/2)
measured_metric: half-life

Bench note: what half-life did CN1CCN(c2ccc(OC(F)(F)F)c(Nc3ncc4c(n3)-c3c(c(C(N)=O)nn3CCO)CC4)c2)CC1 [onvansertib] show?
16 to 46.5 h

====

# test_summary: Pharmacokinetics: onvansertib plasma concentrations by LC/MS-MS
# Format: in vivo, human
# condition_label: human, plasma, oral, 18 mg/m^2, Cycle 1 day 5, mean ± SD; 18 mg/m^2 + LDAC; 3 patients
measured_metric: Cmax

Bench note: what Cmax did CN1CCN(c2ccc(OC(F)(F)F)c(Nc3ncc4c(n3)-c3c(c(C(N)=O)nn3CCO)CC4)c2)CC1 [onvansertib] show?
109 nM

====

# test_summary: Pharmacokinetics: onvansertib plasma concentrations by LC/MS-MS
# Type: in vivo, human
# condition_label: human, plasma, oral, day 5 of cycle 1, across doses and arms
measured_metric: Tmax

What value of Tmax has been reported for the following molecule? CN1CCN(c2ccc(OC(F)(F)F)c(Nc3ncc4c(n3)-c3c(c(C(N)=O)nn3CCO)CC4)c2)CC1 [onvansertib]
1.7 to 3.3 h
